# Subject of test: UniProt Q6PIC6
Test readout: IC50 (µM)

1) C=Cc1cccc2c1N(C)Cc1cc3c(cc1-2)OCO3 [HLY72]; 18.6

---

# Subject of test: UniProt:P05024
pKd: −log10 of the molar value.
Test readout: pKd

1. C=Cc1cccc2c1N(C)Cc1cc3c(cc1-2)OCO3; 5.38

meta.source: paper doi:10.1101/2022.08.24.505199v2
